# target-or-system: T1, human MCSP(D3 domain)-avi-his (human, UniProt Q6UVK1 1582-2224)
# T1 construct: Recombinant D3 domain of MCSP (CSPG4) with avi and his tags; also called hu-MCSP(D3 domain)-avi-his; human MCSP antigen
# T1 sequence: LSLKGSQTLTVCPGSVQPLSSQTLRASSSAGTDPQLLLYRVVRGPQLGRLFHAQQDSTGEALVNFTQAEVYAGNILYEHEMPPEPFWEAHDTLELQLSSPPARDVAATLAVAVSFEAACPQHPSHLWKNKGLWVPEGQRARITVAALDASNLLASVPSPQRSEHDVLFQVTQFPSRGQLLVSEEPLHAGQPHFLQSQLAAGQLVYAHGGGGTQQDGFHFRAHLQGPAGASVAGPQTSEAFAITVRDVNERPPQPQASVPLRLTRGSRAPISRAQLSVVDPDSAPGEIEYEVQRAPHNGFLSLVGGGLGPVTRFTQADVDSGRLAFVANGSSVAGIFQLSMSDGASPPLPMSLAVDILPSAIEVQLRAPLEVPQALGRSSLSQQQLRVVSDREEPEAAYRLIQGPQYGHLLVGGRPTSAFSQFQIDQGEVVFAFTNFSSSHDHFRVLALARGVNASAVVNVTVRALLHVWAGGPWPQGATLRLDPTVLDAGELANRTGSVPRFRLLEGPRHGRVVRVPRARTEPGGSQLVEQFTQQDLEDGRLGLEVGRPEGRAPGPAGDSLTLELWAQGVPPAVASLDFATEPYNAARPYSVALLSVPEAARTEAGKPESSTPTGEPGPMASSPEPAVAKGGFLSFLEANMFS
# test-details: SPR ProteOn XPR36; parental M4-3/ML2 IgG KD against variant IgG KD
Each record here notes measured Fold increase over parent (IgG KD).

M4-3/ML2(E10/G3) IgG (antibody, V domains shown, Human IgG1 format, purified from mammalian production) VH: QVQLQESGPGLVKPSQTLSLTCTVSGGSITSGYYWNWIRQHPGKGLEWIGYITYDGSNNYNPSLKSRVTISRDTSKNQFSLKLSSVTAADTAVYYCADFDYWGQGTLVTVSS VL: DIQMTQSPSSLSASVGDRVTITCRASYGIRGYLNWYQQKPGKAPKLLIYYTSSLHSGVPSRFSGSGSGTDFTLTISSLQPEDFATYHCQQYSALPWTFGQGTKVEIK; 5 fold
M4-3(B8)/ML2 IgG (antibody, V domains shown, Human IgG1 format, purified from mammalian production) VH: QVQLQESGPGLVKPSQTLSLTCTVSGGSITSGYYWNWIRQHPGKGLEWIGYITFDGRNNYNPSLKSRVTISRDTSKNQFSLKLSSVTAADTAVYYCADFDYWGQGTLVTVSS VL: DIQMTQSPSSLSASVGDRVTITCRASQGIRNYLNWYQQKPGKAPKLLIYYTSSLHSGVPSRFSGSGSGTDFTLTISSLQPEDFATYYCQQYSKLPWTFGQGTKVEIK; 2.2 fold

# input for lookup
Request: Name the recorded Fold increase over parent (IgG KD) for M4-3/ML2(G3) IgG (antibody, V domains shown, Human IgG1 format, purified from mammalian production) VH: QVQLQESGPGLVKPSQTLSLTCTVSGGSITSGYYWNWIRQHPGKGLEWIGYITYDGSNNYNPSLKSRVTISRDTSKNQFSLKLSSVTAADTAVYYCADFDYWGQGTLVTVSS VL: DIQMTQSPSSLSASVGDRVTITCRASQGIRNYLNWYQQKPGKAPKLLIYYTSSLHSGVPSRFSGSGSGTDYTLTISSLQPEDFATYYCQQYSALPWTFGQGTKVEIK .
Response: 6.7 fold
